System: Brain
Test: Drug concentration in Sprague-Dawley rat brain assessed as 6-(5-chloropyridin-2-yl)-3-(4-((3,3-difluoro-1-hydroxycyclobutyl)methoxy)-3-methoxyphenyl)pyrrolo[1,2-f][1,2,4]triazin-4(3H)-one level at 10 mg/kg, po qd at 20 hrs
Format: ADME, organism-based
Conditions: in vivo, read-out: Drug uptake
measured-endpoint: concentration (µM)
API: value field is a number in µM; no unit string.

[ask] So what's the measured concentration for this one? COc1cc(-n2cnn3cc(-c4ccc(Cl)cn4)cc3c2=O)ccc1OCC1(OC(=O)CN)CC(F)(F)C1
[reply] 16

====

System: Brain
Assay: Drug concentration in Sprague-Dawley rat brain assessed as (S)-6-(4-chlorophenyl)-3-(4-(3-(ethylsulfonyl)-2-hydroxypropoxy)-3-methoxyphenyl)pyrrolo[1,2-f][1,2,4]triazin-4(3H)-one level at 10 mg/kg, po qd at 8 hrs
Format: ADME, organism-based
Settings: in vivo, read-out: Drug uptake
measured-endpoint: concentration (nM)
API: value field is a number in nM; no unit string.

[ask] So what's the measured concentration for this one? CCS(=O)(=O)C[C@H](COc1ccc(-n2cnn3cc(-c4ccc(Cl)cc4)cc3c2=O)cc1OC)OC(=O)CN
[reply] 175
